Ki values for Histamine H1 receptor (Cavia porcellus, UniProt P31389), compiled from several publications.
Give the quantity in nM, number only.

Examples from the recorded data:
Name the recorded Ki for CC(CN(C)C)CN1c2ccccc2Sc2ccc(C#N)cc21 (stereo not given) .
9.3

Name the recorded Ki for O=C(O)COCCN1CCN(C(c2ccccc2)c2ccc(Cl)cc2)CC1 (stereo not given) .
12.6

Name the recorded Ki for NC(=NCCC(c1ccc(F)cc1)c1ccccn1)NCCCc1cnc[nH]1 (stereo not given) .
33.3

Name the recorded Ki for CC(C(=O)NC(N)=NCCCc1cnc[nH]1)C1CCCCC1 (stereo not given) .
11000

Name the recorded Ki for N=C(NCCCc1c[nH]cn1)NCCC(c1cccc(Cl)c1)c1ccccn1 (stereo not given) .
53.9

Name the recorded Ki for O=C(NCc1ccc(Cc2c[nH]cn2)cc1)Nc1cc(Cl)cc(Cl)c1 .
1000

Continuing:
Name the recorded Ki for CNCCc1cnc(CCC(c2ccccc2)c2ccccc2)[nH]1 .
290

Name the recorded Ki for NCCc1c[nH]c(-c2cccc(Br)c2)n1 .
700

Name the recorded Ki for N=C(NCCCc1c[nH]cn1)NC(=O)CCCC1CCCCC1 .
350

Name the recorded Ki for NCCc1c[nH]c(-c2cccc(I)c2)n1 .
610
